target: Lysine-specific demethylase 5A (Homo sapiens); experiment: AlphaScreen Assay; conditions: pH 8
Sequence (P29375 whole entry): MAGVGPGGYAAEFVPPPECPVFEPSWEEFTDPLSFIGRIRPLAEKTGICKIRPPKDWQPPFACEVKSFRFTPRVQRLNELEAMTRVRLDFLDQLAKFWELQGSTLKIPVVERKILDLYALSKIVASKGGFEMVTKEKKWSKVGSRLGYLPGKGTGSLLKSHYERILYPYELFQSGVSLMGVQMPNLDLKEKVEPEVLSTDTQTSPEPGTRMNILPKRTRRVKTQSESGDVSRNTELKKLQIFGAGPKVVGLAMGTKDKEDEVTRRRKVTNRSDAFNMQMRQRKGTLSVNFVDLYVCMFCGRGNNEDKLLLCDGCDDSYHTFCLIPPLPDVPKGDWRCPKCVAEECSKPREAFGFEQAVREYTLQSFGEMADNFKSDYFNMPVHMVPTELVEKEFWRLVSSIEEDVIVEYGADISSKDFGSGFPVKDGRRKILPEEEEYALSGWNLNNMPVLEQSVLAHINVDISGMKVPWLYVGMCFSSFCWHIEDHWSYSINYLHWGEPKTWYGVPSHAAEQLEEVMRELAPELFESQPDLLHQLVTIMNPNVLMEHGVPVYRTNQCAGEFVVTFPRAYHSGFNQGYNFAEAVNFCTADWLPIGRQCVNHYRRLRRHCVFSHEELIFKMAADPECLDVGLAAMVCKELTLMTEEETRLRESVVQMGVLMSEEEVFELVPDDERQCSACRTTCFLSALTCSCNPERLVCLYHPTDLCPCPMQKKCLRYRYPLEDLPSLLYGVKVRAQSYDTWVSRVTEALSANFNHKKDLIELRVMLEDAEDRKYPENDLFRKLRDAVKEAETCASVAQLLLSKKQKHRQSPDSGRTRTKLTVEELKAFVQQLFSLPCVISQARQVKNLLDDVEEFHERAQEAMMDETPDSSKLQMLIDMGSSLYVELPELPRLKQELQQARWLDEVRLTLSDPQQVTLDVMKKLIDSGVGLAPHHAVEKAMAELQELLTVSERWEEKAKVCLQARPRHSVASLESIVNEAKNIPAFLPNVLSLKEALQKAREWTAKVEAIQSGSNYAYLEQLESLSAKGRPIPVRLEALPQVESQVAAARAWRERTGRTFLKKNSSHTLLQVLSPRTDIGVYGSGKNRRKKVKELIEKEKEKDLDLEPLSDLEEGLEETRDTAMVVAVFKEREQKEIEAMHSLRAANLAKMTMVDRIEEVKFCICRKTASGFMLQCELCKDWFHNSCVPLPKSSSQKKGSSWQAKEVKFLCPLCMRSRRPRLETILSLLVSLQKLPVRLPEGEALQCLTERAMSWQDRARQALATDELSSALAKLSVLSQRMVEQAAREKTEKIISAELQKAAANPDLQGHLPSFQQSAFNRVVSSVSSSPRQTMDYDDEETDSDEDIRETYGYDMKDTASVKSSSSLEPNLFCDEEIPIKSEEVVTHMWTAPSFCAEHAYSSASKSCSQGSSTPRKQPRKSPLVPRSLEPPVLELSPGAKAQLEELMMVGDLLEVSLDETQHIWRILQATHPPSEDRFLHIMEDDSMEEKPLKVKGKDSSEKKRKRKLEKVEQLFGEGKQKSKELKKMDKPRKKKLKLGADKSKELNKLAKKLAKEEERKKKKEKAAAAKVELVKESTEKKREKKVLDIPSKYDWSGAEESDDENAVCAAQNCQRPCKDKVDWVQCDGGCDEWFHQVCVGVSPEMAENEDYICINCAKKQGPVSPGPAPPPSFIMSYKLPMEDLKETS
pIC50: −log10 of the molar value.
measured_quantity: pIC50

Give pIC50 for each of the items listed below.
1. CC(C)(C)OCCCNC(=O)c1cccc(Br)c1
2. CC(C)(C)NCCCNC(=O)c1cccc(Br)c1
3. CC(C)(C)NCCCCCNC(=O)c1cccc(Br)c1
4. CC(C)(C)N1CCN(C(=O)c2cccc(Br)c2)CC1
5. CN(CCCNC(=O)c1cccc(Br)c1)C(C)(C)C
6. CC(C)(C)NCCCNC(=O)c1cc(C(F)(F)F)ccn1
7. CC(C)(C)NCCCCNC(=O)c1cccc(Br)c1

< 4.00
< 3.30
< 4.00
< 4.00
< 3.30
< 4.00
< 4.00
